Recorded values, source patent US20240059762A1.

# tgt: T1, Recombinant SARS-CoV-2 N protein His tagged (SARS-CoV-2, UniProt P0DTC9 1-419)
# T1 construct: also called nucleocapsid (N) protein; recombinant HIS tagged SARS-CoV-2 N protein
# assay comment: BLI (Octet Red 96E), mAb on anti-mouse Fc biosensor, N protein in solution, global 1:1 fit
endpoint label: Kd (nM)

- binder: "SCT-Pa06 (antibody, mouse IgG1, kappa, V domains shown) VH: QVTLKESGPGILQPSQTLSLTCSFSGFSLSTYGMGVGWIRQPSGKGLEWLANIWWNDDKNYNSALKSRLTISKDTSNNQLFLRISSVDTADTATYFCAQIPAYYSNSWFAYWGHGTLVTVSA VL: ENVLTQSPAIMAASPGEKVTMTCSASSSVSSGNFHWYQQKPGTSPKLWIYRTSNLASGVPARFSGSGSGTSYSLTISSMEAEDAATYYCQQWSGYPYTFGSGTKLKIKR"
  recorded result: 0.504
- binder: "SCT-Pa11 (antibody, mouse IgG1, kappa, V domains shown) VH: EVQLQQSGPELVKPGASVKMSCKASGYTFTSYVIHWVKQKPGQGLEWIGYINPYNDGTEYNEKFKGKATLTSDKSSSTAYMELSSLTSEDSAVYYCSRDDYNNRFAYWGPGTLVTVSA VL: DIQMTQSPASLSASVGETVTITCRPSENIYSYLAWYQQKQGKSPQLLVYNAKTLVEGVPSRFSGSGSGTQFSLKINSVQPEDCGSYYCLHHFGTPWTFGGGTILEIKR"
  recorded result: 0.111
- binder: "SCT-Pa02 (antibody, mouse IgG1, kappa, V domains shown) VH: QMQLKQSGPGLVQPSQSLSITCTVSGFSLTSYGVHWVRQSPEKGLEWLGVIWSGGGTDYNAAFISRLSISKDNSKSQVFLKMSSLQTDDTAIYYCARGAYYSLDYWGQGTTLTVSS VL: DIVLTQSPASLAVSLGQRATISCRASESVDYDGDNYMNWYQQKPGQSPKLLIYATSNLESRIPARFSGSGSGTEFTLNIHPVEEEDAATYYCLQSYDVPYTFGSGTKLEMKR"
  recorded result: 1
